Experiment Notes: Protein binding in plasma (unknown origin)
Assay type: ADME, cell-free
Reported Conditions: read-out: PPB (converted)
Measured Metric: fraction unbound

* CO/N=C(\C(=O)N[C@@H]1C(=O)N2C(C(=O)[O-])=C(C[N+]3(C)CCCC3)CS[C@H]12)c1csc(N)n1 | 0.8
* COCC1=C(C(=O)O)N2C(=O)[C@@H](NC(=O)/C(=N\OC)c3csc(N)n3)[C@H]2SC1 | 0.17
* C=CC1=C(C(=O)O)N2C(=O)[C@@H](NC(=O)/C(=N\O)c3csc(N)n3)[C@H]2SC1 | 0.3
* CO/N=C(\C(=O)N[C@@H]1C(=O)N2C(C(=O)O)=C(CSc3nc(=O)c(=O)[nH]n3C)CS[C@H]12)c1csc(N)n1 | 0.05
* Cc1nnc(SCC2=C(C(=O)O)N3C(=O)[C@@H](NC(=O)Cn4cnnn4)[C@H]3SC2)s1 | 0.2
* CO/N=C(\C(=O)N[C@@H]1C(=O)N2C(C(=O)[O-])=C(C[n+]3cccc4c3CCC4)CS[C@H]12)c1csc(N)n1 | 0.9
* CO/N=C(\C(=O)N[C@@H]1C(=O)N2C(C(=O)O)=C(COC(C)=O)CS[C@H]12)c1csc(N)n1 | 0.5
* CO[C@@]1(NC(=O)Cc2cccs2)C(=O)N2C(C(=O)O)=C(COC(N)=O)CS[C@@H]21 | 0.21
* CO/N=C(\C(=O)N[C@@H]1C(=O)N2C(C(=O)O)=C(COC(N)=O)CS[C@H]12)c1ccco1 | 0.5
* CC=CC1=C(C(=O)O)N2C(=O)[C@@H](NC(=O)[C@H](N)c3ccc(O)cc3)[C@H]2SC1 | 0.64
* CO/N=C(\C(=O)N[C@@H]1C(=O)N2C(C(=O)O)=C(/C=C\c3scnc3C)CS[C@H]12)c1csc(N)n1 | 0.12
* Nc1nc(/C(=N/O)C(=O)N[C@@H]2C(=O)N3C(C(=O)O)=C(/C=C4\CCN([C@@H]5CCNC5)C4=O)CS[C@H]23)ns1 | 0.84
* N[C@@H](C(=O)N[C@@H]1C(=O)N2C(C(=O)O)=C(Cl)CS[C@H]12)c1ccccc1 [CEFACLOR ANHYDROUS] | 0.75
* CC(C)(O/N=C(\C(=O)N[C@@H]1C(=O)N2C(C(=O)[O-])=C(C[n+]3ccccc3)CS[C@H]12)c1csc(N)n1)C(=O)O | 0.91
* Cn1c(N)c(NC(=O)NCCN)c[n+]1CC1=C(C(=O)O)N2C(=O)[C@@H](NC(=O)/C(=N\OC(C)(C)C(=O)[O-])c3nsc(N)n3)[C@H]2SC1 | 0.8
* Nc1nc(/C(=C/CC(=O)O)C(=O)N[C@@H]2C(=O)N3C(C(=O)O)=CCS[C@H]23)cs1 | 0.35
* CO/N=C(\C(=O)N[C@@H]1C(=O)N2C(C(=O)O)=CCS[C@H]12)c1csc(N)n1 | 0.7
* CCO/N=C(\C(=O)N[C@@H]1C(=O)N2C(C(=O)[O-])=C(Sc3nc(-c4cc[n+](C)cc4)cs3)CS[C@H]12)c1nsc(N)n1 | 0.8
* C=CC1=C(C(=O)O)N2C(=O)[C@@H](NC(=O)/C(=N\OCC(=O)O)c3csc(N)n3)[C@H]2SC1 | 0.35
* CC1=C(C(=O)O)N2C(=O)[C@@H](NC(=O)[C@H](N)c3ccc(O)cc3)[C@H]2SC1 | 0.8
* CO[C@@]1(NC(=O)C2SC(=C(C(N)=O)C(=O)O)S2)C(=O)N2C(C(=O)O)=C(CSc3nnnn3C)CS[C@@H]21 (stereo partly specified) | 0.12

This collection of values is drawn from ChEMBL document CHEMBL5576123.
